target: hPPARβ (Homo sapiens, UniProt Q03181); experiment: Test A: transient transfection assay in HepG2 cells, Gal4-PPAR chimeric receptor, luciferase reporter (hPPARβ); assay type: cell-based; conditions: HepG2 cells transfected with hPPARβ chimeric receptor; 24 hours incubation; compound 50 μM to 50 pM; read-out: Hep G2-hβ EC50
Sequence (Q03181 211-441 limits assumed): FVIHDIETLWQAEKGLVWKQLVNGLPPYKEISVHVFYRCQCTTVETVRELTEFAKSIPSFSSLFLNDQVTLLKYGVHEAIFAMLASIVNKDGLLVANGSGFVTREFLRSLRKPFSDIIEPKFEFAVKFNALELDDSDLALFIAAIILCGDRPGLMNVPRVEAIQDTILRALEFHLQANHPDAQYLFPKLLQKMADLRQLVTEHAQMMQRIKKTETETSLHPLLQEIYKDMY
measurement_name: EC50 (nM)

P = Cc1nc(-c2ccc(C(F)(F)F)cc2)sc1CSc1ccc2c(c1)CCC(=O)N2CC(=O)O
Q = Cc1nc(-c2ccc(C(F)(F)F)cc2)sc1CSc1ccc2c(c1)CC(C(=O)O)C2 (stereo not shown)
R = Cc1nc(-c2ccc(C(F)(F)F)cc2)sc1CSc1ccc2c(c1)CCC(CC(=O)O)O2 (stereo not shown)
S = COc1cc2c(cc1SCc1sc(-c3ccc(C(F)(F)F)cc3)nc1C)CCC2CC(=O)O (stereo not shown)
Data request: Put the above entries in order of falling EC50. Please list the labels in the order you were asked to rank them.
Data returned: P, Q, S, R
(P: 896 nM, Q: 178 nM, S: 113 nM, R: 8.3 nM)
